The measured values listed here are drawn from paper PMC12399195.

Assay: Tissue distribution in mice after gavage
Assay type: in vivo, C57BL/6J mice
Details: male, C57BL/6J, mouse, femur, po, 40 mg/kg
Measured quantity: concentration at 2 h
Lab note: write values as number then unit, every time.

Tell me concentration at 2 h reported for COc1c2ccoc2cc2oc(=O)ccc12 [5-MP, 5-methoxypsoralen]
8.3 nM

====

Biological target: Notum (Homo sapiens, UniProt Q6P988)
Sequence (Q6P988 20-496): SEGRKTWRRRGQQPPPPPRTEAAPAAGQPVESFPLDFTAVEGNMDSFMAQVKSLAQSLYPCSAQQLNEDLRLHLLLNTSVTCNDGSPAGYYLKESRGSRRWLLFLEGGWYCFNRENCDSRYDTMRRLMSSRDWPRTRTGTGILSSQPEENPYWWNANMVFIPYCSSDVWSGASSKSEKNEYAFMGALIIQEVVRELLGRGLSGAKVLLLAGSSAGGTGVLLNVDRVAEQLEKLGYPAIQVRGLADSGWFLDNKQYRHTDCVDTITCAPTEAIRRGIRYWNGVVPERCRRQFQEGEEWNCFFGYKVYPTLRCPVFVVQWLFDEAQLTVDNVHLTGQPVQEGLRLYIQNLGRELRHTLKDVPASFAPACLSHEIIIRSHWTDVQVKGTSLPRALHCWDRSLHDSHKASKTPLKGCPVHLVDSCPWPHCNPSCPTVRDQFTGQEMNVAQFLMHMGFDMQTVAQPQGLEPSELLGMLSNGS
Test: Notum inhibition assay, OPTS as substrate
Format: biochemical
Measured quantity: Ki (nM)
Please reply with the bare figure in nM and do not write the unit itself.

Write Ki of COc1c2ccoc2cc2oc(=O)ccc12 ; system used: Notum (Homo sapiens, UniProt Q6P988)
15.1

====

Target: Notum (Homo sapiens)
Assay: Notum inhibition assay, DO as fluorogenic substrate
Assay type: biochemical
Measured quantity: pKi
Formally, pKi is defined as -log10 of the concentration c, with c in mol/L.

Check the records and state pKi for COc1c2ccoc2cc2oc(=O)ccc12
7.63

====

Test: Tissue distribution in mice after gavage
Assay type: in vivo, C57BL/6J mice
Details: male, C57BL/6J, mouse, plasma, po, 40 mg/kg
Measured quantity: concentration at 3 h (nM)
Your answer should be a plain number; it is taken to be in nM.

Supply measured concentration at 3 h of COc1c2ccoc2cc2oc(=O)ccc12 in your reply.
44.6

====

Target: Notum (Homo sapiens)
Experiment: Notum inhibition assay, OPTS as substrate
Format: biochemical
Measured quantity: IC50 (nM)
Give your result in nM as a bare value.

COc1c2ccoc2cc2oc(=O)ccc12 :: 11.2

Let me know recorded IC50 for O=c1ccc2cc3ccoc3cc2o1 , thanks.
99.9

Report IC50 for O=c1ccc2ccc3occc3c2o1
71.9
